- Tested on: NCI/ADR-RES ovarian
- assay-overview: NCI-60 one-dose screen, 48 h (100 = growth as untreated, 0 = no growth, -100 = all killed)
- test-conditions: 10 µM unless noted
The panel holds about 83,000 compounds, 20% with a hit somewhere; the sample as a whole holds those more often.
As shown below, each of these molecules has a reported growth value.
Please respond with the number in % and leave the unit unwritten.

Solved cases (2 shown):
>>> print(df.to_string())
                      smiles_representation  output_unit  numeric_result
0    CCOC(=O)c1ccc2n1CCCc1cnc(NC(C)=O)nc1-2            %             108
1  CCCC(=O)NNc1[nH]c(-c2ccc(OC)cc2)cc1C(=O)OCC            %             106

Note: attention shifts to another entry.
Problem: Please look at this molecule and report its growth: "O=[N+]([O-])c1ccc(-c2ncc(-c3ccc(O)cc3O)[nH]2)cc1"
Result: 115

The origin of these recorded values is PubChem BioAssay (NCI).
